Please go through the items and note down their combination Emax.
# System: ACHN (Kidney Carcinoma)
# TEST_METHOD_NOTES: combination Emax (second highest fraction inhibited in the dose matrix, 72 h); higher = more inhibition; extreme values may be limits of the assay
Answers are plain numbers.

Cn1cnc2c(F)c(Nc3ccc(Br)cc3Cl)c(C(=O)NOCCO)cc21 [Selumetinib] + CCN(CCO)CCCOc1ccc2c(Nc3cc(CC(=O)Nc4cccc(F)c4)[nH]n3)ncnc2c1 [AZD2811] (first compound max 10 µM, 7x7, partner max 1 µM) | 0.366
CCc1c2c(nc3ccc(O)cc13)-c1cc3c(c(=O)n1C2)COC(=O)[C@]3(O)CC [SN-38] + CN(C)CCCOc1ccc(-c2ccc3ncc4c(c3c2)n(C2CCOCC2)c(=O)n4C)cn1 [AZD0156] (first compound max 0.3 µM, 7x7, partner max 1 µM) | 0.951
Cc1c2c(nn1C)CSCc1cc(n(C)n1)CSc1cc(c3ccccc3c1)OCCCc1c(C(=O)O)n(C)c3c-2c(Cl)ccc13 [AZD5991] + C[C@@H]1COCCN1C2=NC(=NC(=C2)C3(CC3)[S@](=N)(=O)C)C4=C5C=CNC5=NC=C4 [AZD6738] (first compound max 1 µM, 7x7, partner max 10 µM) | 0.948

For each listed entry, give its combination Emax.
1. CCc1c2c(nc3ccc(O)cc13)-c1cc3c(c(=O)n1C2)COC(=O)[C@]3(O)CC [SN-38] + O=C(c1cc(Cc2n[nH]c(=O)c3ccccc23)ccc1F)N1CCN(C(=O)C2CC2)CC1 [Olaparib] (first compound max 0.3 µM, 7x7, partner max 10 µM)
2. O=C(c1cc(Cc2n[nH]c(=O)c3ccccc23)ccc1F)N1CCN(C(=O)C2CC2)CC1 [Olaparib] + Cc1c2c(nn1C)CSCc1cc(n(C)n1)CSc1cc(c3ccccc3c1)OCCCc1c(C(=O)O)n(C)c3c-2c(Cl)ccc13 [AZD5991] (first compound max 10 µM, 7x7, partner max 1 µM)

[0.912, 0.177]

Take each entry in turn and give its combination Emax.
1. CS(=O)(=O)CCNCc1ccc(-c2ccc3ncnc(Nc4ccc(OCc5cccc(F)c5)c(Cl)c4)c3c2)o1 [Lapatinib] + Cn1cnc2c(F)c(Nc3ccc(Br)cc3Cl)c(C(=O)NOCCO)cc21 [Selumetinib] (first compound max 10 µM, 7x7, partner max 10 µM)
2. Cc1cc2ncnn2cc1Nc1ncc2c(n1)n(C1CCOCC1)c(=O)n2C [AZD7648] + O=C(c1cc(Cc2n[nH]c(=O)c3ccccc23)ccc1F)N1CCN(C(=O)C2CC2)CC1 [Olaparib] (first compound max 10 µM, 7x7, partner max 10 µM)

[0.577, 0.211]
